- system-name: AuroraA-TPX2 (Homo sapiens)
- Construct: 20 μL of AuroraA-TPX2 KD GST for a final volume of about 41 μL; GST
- Sequence (O14965 133-383 limits assumed): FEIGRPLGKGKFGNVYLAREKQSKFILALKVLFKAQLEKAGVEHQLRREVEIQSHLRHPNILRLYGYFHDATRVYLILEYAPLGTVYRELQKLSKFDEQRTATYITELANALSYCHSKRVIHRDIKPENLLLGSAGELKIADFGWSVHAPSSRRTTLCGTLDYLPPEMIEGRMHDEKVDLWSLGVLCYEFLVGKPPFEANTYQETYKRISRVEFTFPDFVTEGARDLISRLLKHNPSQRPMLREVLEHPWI
- Sequence (Q9ULW0 1-43 partner limits assumed): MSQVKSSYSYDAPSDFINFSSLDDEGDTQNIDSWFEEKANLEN
- assay-info: AuroraA-TPX2 Homogeneous Time Resolved Fluorescent (HTRF) kinase assay
- Type: biochemical
- conditions-used: average; read-out: AurA_IC50_IP (uM Avg)
measurement-kind: IC50 (µM)

smiles-text	IC50 / µM
c1ccc(-c2nnc(Nc3ccc(Sc4ccnc5c4CCCN5)cc3)c3ccccc23)cc1	0.428

1 = c1ccc(-c2nnc(Nc3ccc(Oc4ccnc5cc(N6CCOCC6)ccc45)cc3)c3ccccc23)cc1
2 = CCc1cc(-c2ccc(Cl)cc2)nnc1Nc1ccc(Oc2ccnc3cc(OC)cnc23)nc1
Identify the entry with the larger IC50. Options: 1 and 2 State your choice using its label.
2

----------
- system-name: AuroraB (Homo sapiens)
- Construct: 20 μL of AuroraB FL H is for a final volume of 41 μL; His
- assay-info: AuroraB Homogeneous Time Resolved Fluorescent (HTRF) kinase assay
- Format: biochemical
- conditions-used: average; read-out: AurB_IC50_IP (uM Avg)
measurement-kind: IC50 (µM)

smiles-text	observed-measurement
COc1cnc2c(Sc3ccc(Nc4nnc(-c5ccccc5)c5ccccc45)cc3F)ccnc2c1	0.053
COc1ccc(-c2nnc(Nc3ccc(Oc4ccnc5cc(C#N)ccc45)cc3)c3ccccc23)cc1	0.004

P = COc1cc2nncc(Oc3ccc(Nc4nnc(-c5ccc(Cl)cc5)c5ccccc45)cc3)c2cc1OC
Q = N#Cc1ccc2c(Oc3ccc(Nc4nnc(-c5cccc(O)c5)c5ccccc45)cc3)ccnc2c1
R = c1ccc(-c2nnc(Nc3ccc(Sc4ccnc5[nH]cnc45)cc3)c3ccccc23)cc1
S = O=c1ccc2nccc(Sc3ccc(Nc4nnc(-c5ccc(Cl)cn5)c5ccccc45)cc3)c2[nH]1
Arrange these compounds by their IC50, starting with the largest number. Please list the labels in the order you were asked to rank them.
P, R, S, Q

I = COc1ccc2nccc(Sc3ccc(Nc4nnc(-c5ccc(Cl)cn5)c5ccccc45)cc3)c2n1
II = Clc1ccc(-c2nnc(Nc3ccc(Sc4ccnc5ccncc45)cc3)c3ccccc23)nc1
Which entry shows the lesser value of IC50 here, I or II ? State your choice using its label.
II
(II: 0.007 µM, I: 0.022 µM)

----------
- system-name: AuroraB (Homo sapiens, UniProt Q96GD4)
- Construct: 20 μL of AuroraB FL H is for a final volume of 41 μL; His
- Sequence (Q96GD4 whole entry): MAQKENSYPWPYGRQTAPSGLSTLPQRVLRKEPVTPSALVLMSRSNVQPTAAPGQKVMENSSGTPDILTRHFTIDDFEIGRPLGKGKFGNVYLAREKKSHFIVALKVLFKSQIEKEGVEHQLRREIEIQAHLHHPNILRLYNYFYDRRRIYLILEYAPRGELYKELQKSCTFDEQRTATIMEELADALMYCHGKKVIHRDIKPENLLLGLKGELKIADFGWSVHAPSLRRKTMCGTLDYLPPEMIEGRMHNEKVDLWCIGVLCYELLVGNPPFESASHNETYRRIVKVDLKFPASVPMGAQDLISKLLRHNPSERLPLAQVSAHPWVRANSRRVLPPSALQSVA
- assay-info: AuroraB Homogeneous Time Resolved Fluorescent (HTRF) kinase assay
- Assay type: biochemical
- conditions-used: average; read-out: AurB_IC50_IP (uM Avg)
measurement-kind: IC50 (µM)

Recorded IC50, per entry:
compound	IC50, µM
COc1cnc2c(Oc3ccc(Nc4nnc(-c5ncco5)c5ccccc45)cc3)ccnc2c1	0.003
COc1ccc2c(Sc3ccc(Nc4nnc(-c5ccccc5)c5ccccc45)cc3)ccnc2c1	0.155
c1ccc(-c2nnc(Nc3ccc(Sc4ccnc5[nH]ncc45)cc3)c3ccccc23)cc1	0.001

P = Cc1csc(-c2nnc(Nc3ccc(Oc4ccnc5cc(C#N)ccc45)cc3)c3ccccc23)n1
Q = Brc1ccc2c(Oc3ccc(Nc4nnc(-c5ccccc5)c5ccccc45)cc3)ccnc2c1
Identify the entry with the larger IC50. Options: P and Q State your choice using its label.
Q

A = N#Cc1ccc(-c2nnc(Nc3ccc(Oc4ccnc5cc(C#N)ccc45)cc3)c3ccccc23)cc1
B = COc1cc(F)cc2nccc(Sc3ccc(Nc4nnc(-c5ccc(Cl)cc5)c5ccccc45)cc3)c12
Which entry shows the lesser value of IC50 here, A or B ? State your choice using its label.
A
(A: 0.016 µM, B: 0.051 µM)
